compounds and their reported inhibition at 200 µM
# measuredOn: E. coli DNA gyrase (Escherichia coli, UniProt P0AES4+P0AES6)
# Construct: purchased Inspiralis, UK
# Sequence (P0AES4 whole entry, one chain of several): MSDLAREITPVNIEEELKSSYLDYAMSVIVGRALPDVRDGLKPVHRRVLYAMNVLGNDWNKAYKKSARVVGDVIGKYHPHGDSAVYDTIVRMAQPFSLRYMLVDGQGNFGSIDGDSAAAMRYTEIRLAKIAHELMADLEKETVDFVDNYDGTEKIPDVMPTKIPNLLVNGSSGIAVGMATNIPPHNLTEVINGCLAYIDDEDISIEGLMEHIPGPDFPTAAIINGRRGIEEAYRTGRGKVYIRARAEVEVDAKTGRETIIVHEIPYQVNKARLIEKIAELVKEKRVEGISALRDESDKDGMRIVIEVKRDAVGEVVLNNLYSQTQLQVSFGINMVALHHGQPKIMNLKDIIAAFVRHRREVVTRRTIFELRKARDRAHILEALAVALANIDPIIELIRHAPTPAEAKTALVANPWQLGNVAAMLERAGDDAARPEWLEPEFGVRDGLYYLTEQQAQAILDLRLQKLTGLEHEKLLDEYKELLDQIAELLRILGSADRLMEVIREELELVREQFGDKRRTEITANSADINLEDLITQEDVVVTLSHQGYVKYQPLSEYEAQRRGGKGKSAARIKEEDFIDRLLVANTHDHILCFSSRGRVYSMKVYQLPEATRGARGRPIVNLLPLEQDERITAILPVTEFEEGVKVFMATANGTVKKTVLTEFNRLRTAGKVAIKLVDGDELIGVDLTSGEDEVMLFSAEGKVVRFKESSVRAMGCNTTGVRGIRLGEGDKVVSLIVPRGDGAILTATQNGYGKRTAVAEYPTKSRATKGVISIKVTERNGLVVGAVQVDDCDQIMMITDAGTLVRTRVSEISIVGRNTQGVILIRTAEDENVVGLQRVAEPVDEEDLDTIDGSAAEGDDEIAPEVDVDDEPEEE
# assayComment: DNA gyrase supercoiling assay (E. coli)
# Type: biochemical
# protocolConditions: E. coli; conc. 200 μM; n/a = not active

{"compound": "O=c1cc(NCCCN2CCN(c3nccc4ccccc34)CC2)c2ccccc2o1 [Compound 44]", "inhibition at 200 µM": "100%"}
{"compound": "O=c1cc(NC2CCN(CCCc3cccc4ocnc34)CC2)c2ccccc2o1 [Compound 27]", "inhibition at 200 µM": "61%"}
{"compound": "O=c1cc(NC2CCN(CCCc3nccc4ccccc34)CC2)c2ccccc2o1 [Compound 29]", "inhibition at 200 µM": "92%"}
{"compound": "c1ccc2c(N3CCN(CCCNCc4cc5c(cn4)OCS5)CC3)nccc2c1 [Compound 46]", "inhibition at 200 µM": "57%"}
{"compound": "O=C1Cc2cccc(CCCN3CCC(Nc4cc(=O)oc5ccccc45)CC3)c2N1 [Compound 40]", "inhibition at 200 µM": "54%"}

====

# measuredOn: E. coli Topoisomerase IV (Escherichia coli, UniProt P0AFI2+P20083)
# Construct: purchased Inspiralis, UK
# Sequence (P20083 whole entry): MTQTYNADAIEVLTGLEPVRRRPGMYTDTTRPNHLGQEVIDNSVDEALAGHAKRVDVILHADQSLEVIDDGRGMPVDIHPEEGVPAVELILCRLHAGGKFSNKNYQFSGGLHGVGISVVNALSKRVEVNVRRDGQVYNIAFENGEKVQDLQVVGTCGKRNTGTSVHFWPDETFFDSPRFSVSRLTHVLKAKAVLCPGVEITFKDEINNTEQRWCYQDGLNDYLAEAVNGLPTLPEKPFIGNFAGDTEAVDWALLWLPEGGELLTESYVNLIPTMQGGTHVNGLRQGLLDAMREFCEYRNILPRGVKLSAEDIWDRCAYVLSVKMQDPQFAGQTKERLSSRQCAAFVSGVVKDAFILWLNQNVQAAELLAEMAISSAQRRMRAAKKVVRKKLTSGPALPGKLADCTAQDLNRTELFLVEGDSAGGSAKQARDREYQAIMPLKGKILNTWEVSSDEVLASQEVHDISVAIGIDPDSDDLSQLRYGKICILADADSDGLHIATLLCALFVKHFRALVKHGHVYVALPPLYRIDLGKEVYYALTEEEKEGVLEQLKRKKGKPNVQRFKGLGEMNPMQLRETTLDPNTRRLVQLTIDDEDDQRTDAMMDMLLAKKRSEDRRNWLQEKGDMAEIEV
# Sequence (P0AFI2 whole entry): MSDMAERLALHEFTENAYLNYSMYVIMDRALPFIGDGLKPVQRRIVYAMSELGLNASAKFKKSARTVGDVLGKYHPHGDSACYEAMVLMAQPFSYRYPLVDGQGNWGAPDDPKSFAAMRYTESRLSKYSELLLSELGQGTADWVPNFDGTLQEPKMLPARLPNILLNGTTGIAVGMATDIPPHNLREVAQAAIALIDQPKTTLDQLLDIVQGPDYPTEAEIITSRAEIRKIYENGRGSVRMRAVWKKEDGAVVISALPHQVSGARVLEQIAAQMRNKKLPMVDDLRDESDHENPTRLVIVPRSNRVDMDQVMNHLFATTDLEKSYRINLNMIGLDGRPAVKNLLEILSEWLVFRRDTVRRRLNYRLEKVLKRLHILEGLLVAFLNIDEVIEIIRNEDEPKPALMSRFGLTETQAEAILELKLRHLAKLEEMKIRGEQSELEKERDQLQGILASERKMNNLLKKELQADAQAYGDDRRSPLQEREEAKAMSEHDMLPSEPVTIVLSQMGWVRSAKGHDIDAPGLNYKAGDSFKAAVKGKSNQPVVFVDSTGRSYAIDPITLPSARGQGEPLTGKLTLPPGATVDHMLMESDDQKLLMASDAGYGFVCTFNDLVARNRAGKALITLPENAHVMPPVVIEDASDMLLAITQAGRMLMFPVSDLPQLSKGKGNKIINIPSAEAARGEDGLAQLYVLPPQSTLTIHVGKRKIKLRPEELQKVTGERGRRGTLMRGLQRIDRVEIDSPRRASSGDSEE
# assayComment: Topoisomerase IV decatenation assay (E. coli)
# Format: biochemical
pIC50: −log10 of the molar value. Counter-ions that a name gives are not always drawn.
molecules and their reported pIC50

{"molecule": "O=c1cc(NCCCN2CCN(c3nccc4cccnc34)CC2)c2ccccc2o1 [Compound 61]", "pIC50": 4.69}
{"molecule": "O=c1oc2ccc(F)cc2c2cc(CNC3CCN(c4nccc5ncccc45)CC3)[nH]c12 [Compound 187]", "pIC50": 5.80}
{"molecule": "O=c1cc(NCCC[N+]2([O-])CCN(c3nccc4ccc(F)cc34)CC2)c2ccccc2o1 [Compound 105]", "pIC50": 5.25}
{"molecule": "O=CNC(CN1CCN(c2nccc3ccc(F)cc23)CC1)c1nc2c(=O)oc3ccccc3c2[nH]1 (centres unmarked) [Compound 159, hydrochloride]", "pIC50": 5.98}
{"molecule": "O=c1oc2ccccc2c2[nH]c(CNC3CCN(c4nccc5ccc(F)cc45)CC3)c(C(F)(F)F)c12 [Compound 153]", "pIC50": 5.87}
{"molecule": "O=c1cc(NC2CCN(CCCc3nccc4ccccc34)CC2)c2ccccc2o1 [Compound 29]", "pIC50": 5.00}
{"molecule": "O=c1cc(NCCCN2CCN(c3nccc4ccccc34)CC2)c2ccccc2o1 [Compound 44]", "pIC50": 5.00}
{"molecule": "NC(=O)C1CN(c2nccc3ccccc23)CCN1CCCNc1cc(=O)oc2ccccc12 (centres unmarked) [Compound 89, hydrochloride]", "pIC50": 4.27}

====

molecules and their reported IC50
# measuredOn: E. coli DNA gyrase (Escherichia coli, UniProt P0AES4+P0AES6)
# Construct: purchased Inspiralis, UK
# assayComment: DNA gyrase supercoiling assay (E. coli)
# Format: biochemical
measureName: IC50 (nM)

{"molecule": "O=c1cc(CC(O)CCN2CCN(c3nccc4ccc(F)cc34)CC2)c2ccccc2o1 (stereo not shown) [Compound 134]", "testResult": 2800}
{"molecule": "O=c1cc(NCCCN2CCN(c3nccc4ccc(F)cc34)CC2)c2c(o1)CCOC2 [Compound 125]", "testResult": 6300}
{"molecule": "COc1ccc2nccc(N3CCC(NCc4cc5c([nH]4)c(=O)oc4ccc(F)cc45)CC3)c2n1 [Compound 188]", "testResult": 90}
{"molecule": "O=c1cc(NCCCN2CCN(c3nccc4ccccc34)CC2)c2ccccc2o1 [Compound 44]", "testResult": 500}
